Field: GI50. Provide a value for each of the compounds that follow.
Test system: MOLT-4
Test: NCI tumour cell line growth inhibition, 48 h
Activity calls are given as the source filed them. No stated cut-off is given here; in the data, active = GI50 up to about 1.1 µM and inactive = higher.

## Task Enter measured GI50, system MOLT-4, for the compound shown: `COc1ccc2cc(C(=O)c3ccccc3C(=O)O)ccc2c1`
## Result > 100 µM (inactive)

## Task Jot down GI50 (MOLT-4) of `Clc1ccc(-c2nnc(C34CC5CC(CC(C5)C3)C4)o2)cc1` .
## Result > 100 µM (inactive)

## Task Fill in GI50 for `c1cc(CSc2ncnc3[nH]cnc23)ccn1` tested with MOLT-4.
## Result 34.7 µM (inactive)

---

Test system: NCI-H23
Experiment: NCI tumour cell line growth inhibition, 48 h
The source made the active and inactive calls. No stated cut-off is given here; in the data, active = GI50 up to about 1.1 µM and inactive = higher.
Could you please report measured GI50 for the items listed next?

## Task Quote GI50 reported for `CCCCNC(=S)N/C=C1\C(=O)Nc2ccccc2C1=O` please.
## Result > 10 µM (inactive)

## Task Name the recorded GI50 of the compound listed here: COC1=CC(=O)C(O)=C(CC2(C)C(C)CCC3(C)C2CCCC3(C)C)C1=O (centres undefined)
## Result 2.84 µM (inactive)

## Task Return GI50 (reported value) for this compound: O=C(O)C12C3CCC(CC3)C1(C(=O)O)C1CCC2C1 (centres undefined)
## Result > 100 µM (inactive)

## Task Tell me GI50 reported for `Cc1cc(O)c2cc3c(O)c(O)ccc3cc2c1`
## Result 1.24 µM (inactive)

## Task Identify GI50 associated with the compound `O=C1C=C(Br)c2c(Br)sc(Br)c21`
## Result 10.6 µM (inactive)

## Task Retrieve GI50 measured for COC(=O)C1=CSC2(S1)C(C(=O)OC)=CSc1c2ss/c1=N\c1ccccc1 (centres undefined) and print it.
## Result 2.47 µM (inactive)

## Task In one line, give reported GI50 of the entry CSc1nc(Cl)c2c(n1)Sc1ncnn1C2O (centres undefined) .
## Result 14.2 µM (inactive)

## Task Note GI50 for the compound shown: `O=C(Nc1cccc2ccccc12)c1cc2ccccc2oc1=O`
## Result 36.7 µM (inactive)

## Task Recall and state the measured GI50 for `Cn1ccnc1CCc1ccc(Cl)c(Cl)c1` .
## Result > 100 µM (inactive)

## Task State its GI50 for this compound: Fc1cccc(F)c1C1SCc2nc3cc4ccccc4cc3n21 (centres undefined)
## Result 52.7 µM (inactive)

## Task Provide one value: measured GI50 of `COc1cc(/C=N/N=C(\N)NO)c(Cl)cc1O`
## Result 35.5 µM (inactive)

## Task Return GI50 for the following compound: `COc1ccc2cc(C(=O)c3ccccc3C(=O)O)ccc2c1`
## Result > 100 µM (inactive)

## Task Answer with the recorded GI50 of `NCCCCN(CCCN)C(=O)OCc1ccccc1` only.
## Result > 100 µM (inactive)

## Task Quickly give me recorded GI50 for `c1cc(CSc2ncnc3[nH]cnc23)ccn1`
## Result > 100 µM (inactive)

---

System: HOP-62
Test: NCI tumour cell line growth inhibition, 48 h
Activity calls are given as the source filed them. Cut-off read from the data, not from the text of the source: active = GI50 up to about 1.1 µM and inactive = higher.
Field: GI50. Provide a value for each of the compounds that follow.

## Task Specify reported GI50 for the compound shown: O=C1CCCC2C3CC(CN12)C1CCCCN1C3.[O-][Cl+3]([O-])([O-])O (stereo not given)
## Result > 100 µM (inactive)

## Task Retrieve GI50 measured for CC(=O)N1C(c2[nH]c3ccccc3c2-c2ccccc2)CCN1c1ccccc1 (stereo not given) and print it.
## Result > 10 µM (inactive)

## Task Provide one value: measured GI50 of Nc1nc(Cl)c(N)c(NCC2(CO)CC(OCc3ccccc3)C2)n1 (stereo not given)
## Result > 100 µM (inactive)

## Task Determine its reported GI50: `O=c1ccc2nc3cc(Br)ccc3sc-2c1`
## Result > 100 µM (inactive)

## Task Give the reported GI50 for this compound. `O=Nc1c(-c2c(O)[nH]c3ccccc23)[nH]c2ccccc12`
## Result 7.23 µM (inactive)

## Task Query GI50 for `CN(C)Cc1cc(C(=O)/C=C/c2ccc(O)cc2)cc(CN(C)C)c1O`
## Result 38 µM (inactive)

## Task Note GI50 for the compound shown: `S=C1N=C(Cl)/C(=C\c2ccccc2)N1`
## Result > 100 µM (inactive)

## Task Answer with the recorded GI50 for the compound listed here: C=C(COC(C)=O)CC(OC(C)=O)c1ccccc1 (stereo not given)
## Result > 100 µM (inactive)

## Task Please supply the value of reported GI50 for the item COc1ccc(/C=C2\CCC(CNc3ccc(OC)cc3)C2=O)cc1 (stereo not given)
## Result 36.4 µM (inactive)

## Task Read the entry C=CCC(C(=O)OC)C1(C(=O)OC)c2[nH]c3ccccc3c2CCN1Cc1ccccc1 (stereo not given) and write its reported GI50.
## Result > 100 µM (inactive)
